biological target: D(1A) dopamine receptor (Homo sapiens) (UniProt P21728); experiment: Allosteric Agonists of the Human D1 Dopamine Receptor: qHTS; details: HEK293 T-REx D1 cells, calcium flux, agonist mode; at 2 µM; hits give high values; further: 0% is about no effect
Sequence (P21728 whole entry, looked up): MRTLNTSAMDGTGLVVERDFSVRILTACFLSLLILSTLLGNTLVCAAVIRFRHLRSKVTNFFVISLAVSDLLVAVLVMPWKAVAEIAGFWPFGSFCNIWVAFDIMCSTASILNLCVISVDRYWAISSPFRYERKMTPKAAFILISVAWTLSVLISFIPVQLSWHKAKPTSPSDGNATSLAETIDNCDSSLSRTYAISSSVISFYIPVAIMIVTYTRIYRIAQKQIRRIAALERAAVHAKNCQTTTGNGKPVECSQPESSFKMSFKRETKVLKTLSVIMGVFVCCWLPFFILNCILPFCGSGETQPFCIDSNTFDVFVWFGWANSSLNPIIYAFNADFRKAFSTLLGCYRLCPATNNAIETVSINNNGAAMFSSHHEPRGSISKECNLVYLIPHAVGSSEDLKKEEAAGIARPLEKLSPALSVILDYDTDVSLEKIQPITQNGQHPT
Screen size: about 360,000 compounds; about 3,700 (1%) were called active. The entries come from a sample that favours actives as a whole.
Observable: activation (%)
Hi! Could you send only the number? It should be in %, unit omitted.

Data request: Entry CC(C)C(=O)Nc1nc2c(s1)CC(C(C)(C)C)CC2 (configuration not stated) has what activation?
Data returned: 1.03

Data request: Can you handle `Cn1c(=O)c2c(SCC(=O)N3CCc4ccccc43)nc(-c3ccc(Cl)cc3)nc2n(C)c1=O` next?
Data returned: 0.75

Data request: Can you handle `COc1ccc(-c2c3c(=O)n(C)c(=O)n(C)c3c3c(C)nc4ccccc4n23)cc1` next?
Data returned: -0.834

Data request: Can you handle `CCOC(=O)c1cc(NC(=O)SCC(=O)O)c(C)nc1C` next?
Data returned: 1.84

Data request: Can you handle `COCCNc1ncnc2c1c(-c1ccccc1)cn2-c1ccc(C)c(Cl)c1` next?
Data returned: 2.02

Data request: Can you handle `Cc1ccc(C(=O)N2c3ncnn3C3(CCCCC3)[C@@H]3CCCC[C@@H]32)cc1` next?
Data returned: -0.224

Data request: Can you handle `CC(C)c1ccc(Cn2c(COc3ccccc3)nc3ccccc32)cc1` next?
Data returned: 32.7

Data request: Can you handle `CCCC(=O)Nc1ccc2oc(-c3ccc(O)c(Br)c3)nc2c1` next?
Data returned: 3.7

Data request: Can you handle CCC(=O)N1c2ccccc2CC1C(=O)N1CCN(c2cccc(OC)c2)CC1 (configuration not stated) next?
Data returned: -0.217

Data request: Can you handle `CC(=O)N1c2ccccc2N(Cc2ccc([N+](=O)[O-])cc2)C(=O)C1(C)C` next?
Data returned: 2.19

Data request: Can you handle `Cc1cccc(S(=O)(=O)c2cn(Cc3ccccc3)c3cc(N4CCOCC4)c(F)cc3c2=O)c1` next?
Data returned: 1.08

Data request: Can you handle `O=C(NCCc1c[nH]c2ccccc12)c1cc2ccccc2oc1=O` next?
Data returned: 4.67

Data request: Can you handle `Cc1cccc(NC(=O)N2CCC(CN3CCc4ccccc4C3)CC2)c1C` next?
Data returned: 6.8

Data request: Can you handle `Cc1ccc(CN2CCC(CNC(=O)c3cnn(-c4ccccc4Cl)c3C3CCN(C(=O)OC(C)(C)C)CC3)CC2)cc1` next?
Data returned: 27.5

Data request: Can you handle `Cc1ccc(CN2CCC(CNC(=O)c3cnn(-c4ccc(C)cc4)c3C3CCN(C(=O)OC(C)(C)C)CC3)CC2)cc1` next?
Data returned: 33.1

Data request: Can you handle `CCN(CC)CCN(C(=O)c1ccc(N2C(=O)CCC2=O)cc1)c1nc2cc3c(cc2s1)OCO3` next?
Data returned: 5.63

Data request: Can you handle `CCc1ccc2nc(N(CCCN(C)C)C(=O)c3ccc4c(c3)OCCO4)sc2c1` next?
Data returned: 53.9

Data request: Can you handle `COc1ccccc1CNS(=O)(=O)c1ccc2c(c1)NC(=O)CS2` next?
Data returned: 4.9

Data request: Can you handle `CCN(CC(=O)Nc1c(F)cccc1F)C(=O)c1ccc(S(=O)(=O)N2CCCCC2)cc1` next?
Data returned: -0.0233

Data request: Can you handle `CCc1cc2c(-c3ccccc3)cc(=O)oc2c2c1OCN(Cc1ccc(C)cc1)C2` next?
Data returned: 10.6

Data request: Can you handle `O=C(c1cccs1)c1cn(CCOc2ccc(Cl)cc2)c2ccccc12` next?
Data returned: -1.61

Data request: Can you handle `Cc1ccc(NC(=O)COC(=O)CNC(=O)c2ccc(Cl)cc2Cl)cc1S(=O)(=O)N1CCOCC1` next?
Data returned: 31.1

Data request: Can you handle CCc1ccc(C2CC(=O)c3c([nH]c(C(=O)OCc4ccc(C)cc4)c3C)C2)cc1 (configuration not stated) next?
Data returned: 3.18

Data request: Can you handle `COc1ccc(S(=O)(=O)NCc2cccn2Cc2cccc(C)c2)cc1Cl` next?
Data returned: 33.8

Data request: Can you handle `Cc1ccc(C(=O)N/C(=C/c2ccco2)C(=O)NCCc2c[nH]c3ccccc23)cc1C` next?
Data returned: 2.88

Data request: Can you handle `Cc1csc2nc(COC(=O)c3ccccc3NC(=O)c3ccccc3Cl)cc(=O)n12` next?
Data returned: 3.01

Data request: Can you handle `N#C/C(=C/c1ccc(N2CCCCC2)o1)C(=O)NCCc1c[nH]c2ccccc12` next?
Data returned: 78.8

Data request: Can you handle `CCOC(=O)c1cc2ccccc2nc1C` next?
Data returned: 31.8

Data request: Can you handle `COc1ccc(S(=O)(=O)NCc2cccn2Cc2cccc(C)c2)cc1` next?
Data returned: 23.9

Data request: Can you handle `CCCCN(CC)C(=O)c1ccc2c(c1)OCO2` next?
Data returned: 4.54

Data request: Can you handle CCC1CCCCN1S(=O)(=O)c1ccc(NC(=O)c2cc(=O)c3ccccc3o2)cc1 (configuration not stated) next?
Data returned: 0.0446

Data request: Can you handle `Cc1ccc(NC(=O)CCCNC(=O)c2ccc(Cl)cc2)cc1S(=O)(=O)N1CCOCC1` next?
Data returned: 0.321

Data request: Can you handle `CCc1nccn1S(=O)(=O)c1cc(Br)ccc1Br` next?
Data returned: -0.03

Data request: Can you handle `COc1ccc(CCn2cc3c(c2-c2ccc(Br)cc2)c(=O)n(C)c(=O)n3C)cc1OC` next?
Data returned: 0.633

Data request: Can you handle `O=C(NC1CCCC1)c1cc(-c2ccccc2)on1` next?
Data returned: 0.117

Data request: Can you handle `Cc1cc(C)c2sc(NC(=O)c3ccc(S(=O)(=O)N4CCCC4)cc3)nc2c1` next?
Data returned: -0.497

Data request: Can you handle `O=C(N/N=C/C=C/c1ccco1)c1cccs1` next?
Data returned: 2.91

Data request: Can you handle `COc1ccc(CCNC(=O)CCCCn2c(=O)c3ccccc3n(Cc3ccccc3C)c2=O)cc1OC` next?
Data returned: 13.8

Data request: Can you handle `O=C(/C=C/c1ccccc1)Nc1cc(-c2nc3cc(Cl)ccc3o2)ccc1Cl` next?
Data returned: -1.26

Data request: Can you handle `Cc1nc(SCCOc2ccc(Cl)cc2)[nH]c(=O)c1Cc1ccccc1` next?
Data returned: -1.18

Data request: Can you handle `CCOc1ccc(-n2c(C)nc3c(cnn3-c3ccc(C)cc3)c2=O)cc1` next?
Data returned: 0.209

Data request: Can you handle `CCCCCOc1ccc(CSC2=NCCN2)cc1[N+](=O)[O-]` next?
Data returned: 42.9

Data credit: PubChem BioAssay AID504660
